B1: TPR t1 (parent)
chain: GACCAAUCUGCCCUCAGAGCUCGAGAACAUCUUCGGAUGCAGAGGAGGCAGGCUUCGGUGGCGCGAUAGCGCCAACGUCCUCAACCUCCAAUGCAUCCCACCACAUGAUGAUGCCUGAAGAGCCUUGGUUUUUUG

Variants of: B1
Procedure text: polymerase ribozyme fitness, log enrichment relative to wild type (log ratio); higher = more active; in vitro selection for triplet polymerase activity
Property name: polymerase ribozyme fitness (log ratio)
Just the number, please, no unit after it.

Before answering, review these 2 worked examples.
| Mutation id | Observed result |
| --- | --- |
| C11G C22G A41G G128C | -5.82 |
| C8A G52A C98A | -4.9 |

Quick one: polymerase ribozyme fitness (log ratio) for G61A A91C C94G A105C U109A A119C ?
-7.38

Quick one: polymerase ribozyme fitness (log ratio) for G58A G120U ?
-0.283

Quick one: polymerase ribozyme fitness (log ratio) for C79U G113A C123U U129C ?
-3.48

Quick one: polymerase ribozyme fitness (log ratio) for U7A C72A ?
-0.427

Quick one: polymerase ribozyme fitness (log ratio) for G10U C73A U78G A111G ?
0.173

Quick one: polymerase ribozyme fitness (log ratio) for U9A C13A G42C A43U A100U ?
-3.76

Quick one: polymerase ribozyme fitness (log ratio) for A50U G120C ?
0.234

Quick one: polymerase ribozyme fitness (log ratio) for G39C C70U C101A ?
-2.67

Quick one: polymerase ribozyme fitness (log ratio) for G71A C85U G128U U131A ?
-3.17

Quick one: polymerase ribozyme fitness (log ratio) for C13G C53U ?
-1.87

Quick one: polymerase ribozyme fitness (log ratio) for C76G G77U U78G U112C ?
2.21

Quick one: polymerase ribozyme fitness (log ratio) for G42A C49G C72A C94U U130A U132C ?
-3.26

Quick one: polymerase ribozyme fitness (log ratio) for C49G G57U ?
-0.441

Quick one: polymerase ribozyme fitness (log ratio) for G39A C56U G107U A111U U129A ?
-5.29

Quick one: polymerase ribozyme fitness (log ratio) for C22U A66U G120A ?
-4.81

Quick one: polymerase ribozyme fitness (log ratio) for G63U G120C U131A ?
0.507

Quick one: polymerase ribozyme fitness (log ratio) for A27C C94U ?
-3.16

Quick one: polymerase ribozyme fitness (log ratio) for C4U U9C C34G A100U ?
-4.68

Quick one: polymerase ribozyme fitness (log ratio) for A6U A68G A75U U92A C123A ?
-4.87
